System: HOP-92
Experiment: NCI tumour cell line growth inhibition, 48 h
Active and inactive are the calls of the source. No stated cut-off is given here; in the data, active = GI50 up to about 1.1 µM and inactive = higher.
Possible outcomes: active, inactive

{"molecule": "CC1=C2C(=CC(C)(C)C2O)C(=O)C(C)(O)C12CC2 (stereo unspecified)", "class-assignment": "active"}
{"molecule": "CCNC1CC(n2cc(C)c(=O)[nH]c2=O)OC1CO (stereo unspecified)", "class-assignment": "inactive"}
{"molecule": "C=CC(O)(CBr)CCC(Br)C(C)(C)Cl (stereo unspecified)", "class-assignment": "inactive"}
{"molecule": "CCN=C=NCCCN(C)C", "class-assignment": "inactive"}
{"molecule": "COc1ccc2c(c1)[C@@H](NC(C)=O)CCc1cc(OC)c(OC)c(OC)c1-2", "class-assignment": "active"}
{"molecule": "c1cncc(C2(c3cc4ccccc4[nH]3)COCO2)c1 (stereo unspecified)", "class-assignment": "inactive"}
{"molecule": "Nc1c(C(=O)Nc2ccccc2O)[n+]([O-])c2ccccc2[n+]1[O-]", "class-assignment": "inactive"}
{"molecule": "O=C(CCCc1cccc2[nH]c3c(c12)CN(Cc1ccccc1)CC3)c1ccc(F)cc1", "class-assignment": "inactive"}
{"molecule": "O=C(CCc1ccc(O)c(O)c1)NCCc1cc(OCc2ccccc2)cc(OCc2ccccc2)c1", "class-assignment": "inactive"}
{"molecule": "CN(C)c1nc(N)c(C#N)c(C#N)c1C#N", "class-assignment": "inactive"}
{"molecule": "CC(=O)OCC1OC(n2c(-c3ccc(C)cc3)cc(-c3ccccc3)c(C#N)c2=S)C(OC(C)=O)C(OC(C)=O)C1OC(C)=O (stereo unspecified)", "class-assignment": "inactive"}
{"molecule": "COc1ccc(Cn2c3ccc([N+](=O)[O-])cc3c(=O)n2Cc2ccccn2)cc1", "class-assignment": "inactive"}
{"molecule": "CCOc1ccc2nc3nc(O)nc(C)c3c(NCCCN(CC)CC)c2c1", "class-assignment": "inactive"}
{"molecule": "COc1ccc(C2=NN(C(=N)S)C(c3ccccc3)C2)cc1 (stereo unspecified)", "class-assignment": "inactive"}
{"molecule": "COC(=O)/C(=N\\NC(=O)c1ccccc1O)C(C#N)c1ccc(Cl)cc1 (stereo unspecified)", "class-assignment": "inactive"}
{"molecule": "Cc1c(C(=O)C/C(=N/NC(=O)C[N+](C)(C)C)C(=O)Nc2ccc(Cl)cc2)[n+]([O-])c2ccccc2[n+]1[O-]", "class-assignment": "inactive"}
